Biological target: Cyclin-dependent kinase 5/CDK5 activator 1 (Homo sapiens) (UniProt Q00535+Q15078)
Sequence (Q00535 whole entry): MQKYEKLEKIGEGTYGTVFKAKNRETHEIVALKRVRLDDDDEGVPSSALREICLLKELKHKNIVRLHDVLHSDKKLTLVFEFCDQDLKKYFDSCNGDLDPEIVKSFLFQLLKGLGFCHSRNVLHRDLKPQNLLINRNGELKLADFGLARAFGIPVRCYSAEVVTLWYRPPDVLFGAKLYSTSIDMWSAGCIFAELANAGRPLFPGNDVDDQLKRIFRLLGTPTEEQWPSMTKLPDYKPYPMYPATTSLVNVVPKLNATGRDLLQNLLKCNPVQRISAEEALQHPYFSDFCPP
Sequence (Q15078 99-307 partner limits assumed): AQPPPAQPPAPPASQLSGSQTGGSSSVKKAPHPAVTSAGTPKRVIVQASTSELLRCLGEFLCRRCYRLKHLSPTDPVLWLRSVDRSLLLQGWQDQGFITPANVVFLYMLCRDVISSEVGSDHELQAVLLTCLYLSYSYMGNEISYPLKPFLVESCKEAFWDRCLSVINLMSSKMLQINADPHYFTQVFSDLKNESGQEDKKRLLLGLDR
Experiment: Inhibition of CDK5/p25 assessed as residual activity at 1 uM relative to control
Assay type: protein-complex assay
assay.readout: Activity (%)

Look over these answered cases.
{"compound": "O=C(Nc1ncnc2[nH]c(-c3ccc4ccccc4c3)nc12)C1CC1", "assay.readout": "Activity", "unit.spec": "%", "observed": 101}
{"compound": "c1ccc(CNc2ncnc3[nH]c(-c4ccccc4)nc23)cc1", "assay.readout": "Activity", "unit.spec": "%", "observed": 84}

[1] c1ccc(Nc2ncnc3[nH]c(-c4ccccc4)nc23)cc1
[2] COc1ccc(CNc2ncnc3[nH]c(-c4cccnc4)nc23)cc1
For the pair 1 and 2 , which entry has the numerically smaller recorded Activity? Lab log: write the label of the selected item as the result.
1
(1: 63%, 2: 95%)

[P] N#Cc1cccc(-c2nc3c(Nc4ccccc4)ncnc3[nH]2)c1
[Q] N#Cc1cccc(-c2nc3c(NC(=O)c4ccccc4)ncnc3[nH]2)c1
For the pair P and Q , which member has the lower Activity number? Could you answer with the label of the item you picked?
P
(P: 63%, Q: 102%)

[1] CCCCC(=O)Nc1ncnc2[nH]c(-c3ccc4ccccc4c3)nc12
[2] O=C(Nc1ncnc2[nH]c(-c3ccccc3)nc12)C1CCCCN1 (stereo unspecified)
In terms of reported Activity, does 1 or 2 have the smaller number? Write the label of whichever entry you select.
2

---

Molecular target: Cyclin-dependent kinase 5/CDK5 activator 1 (Homo sapiens) (UniProt Q00535+Q15078)
Assay: Inhibition of CDK5/p25 assessed as residual activity at 1 uM relative to control
Type: protein-complex assay
assay.readout: Activity (%)

{"substance.smiles": "CC(=O)Nc1ncnc2[nH]c(-c3cccc(C#N)c3)nc12", "unit.spec": "%", "Activity": 103}
{"substance.smiles": "C(=C\\c1nc2c(Nc3ccccc3)ncnc2[nH]1)/c1ccccc1", "unit.spec": "%", "Activity": 100}
{"substance.smiles": "C(=C\\c1nc2c(N3CCCC3)ncnc2[nH]1)/c1ccccc1", "unit.spec": "%", "Activity": 101}
{"substance.smiles": "O=C(Nc1ncnc2[nH]c(-c3ccccc3)nc12)c1ccccc1", "unit.spec": "%", "Activity": 102}
{"substance.smiles": "Cn1c(-c2ccccc2)nc2c(N3CCCC3)ncnc21", "unit.spec": "%", "Activity": 100}
{"substance.smiles": "O=C(Nc1ncnc2[nH]c(-c3cccc(Cl)c3)nc12)C1CC1", "unit.spec": "%", "Activity": 100}

---

Target: Cyclin-dependent kinase 5/CDK5 activator 1 (Homo sapiens) (UniProt Q00535+Q15078)
Assay: Inhibition of CDK5/p25 assessed as residual activity at 1 uM relative to control
Format: protein-complex assay
assay.readout: Activity (%)

{"substance.smiles": "CN[C@@H]1C[C@H]2O[C@@](C)([C@@H]1OC)n1c3ccccc3c3c4c(c5c6ccccc6n2c5c31)C(=O)NC4", "observed": 98.4}
{"substance.smiles": "Cn1c(-c2cccc(F)c2)nc2c(NC(=O)C3CC3)ncnc21", "observed": 99}
{"substance.smiles": "O=C(Nc1ncnc2[nH]c(/C=C/c3ccccc3)nc12)c1cccc(Br)c1", "observed": 101}
{"substance.smiles": "COc1ccc(CNc2ncnc3[nH]c(-c4ccccc4)nc23)cc1", "observed": 93}
{"substance.smiles": "c1cncc(-c2nc3c(N4CCOCC4)ncnc3[nH]2)c1", "observed": 71}

---

Target: Glycogen synthase kinase-3 alpha (Homo sapiens) (UniProt P49840)
Sequence (P49840 2-483 limits assumed): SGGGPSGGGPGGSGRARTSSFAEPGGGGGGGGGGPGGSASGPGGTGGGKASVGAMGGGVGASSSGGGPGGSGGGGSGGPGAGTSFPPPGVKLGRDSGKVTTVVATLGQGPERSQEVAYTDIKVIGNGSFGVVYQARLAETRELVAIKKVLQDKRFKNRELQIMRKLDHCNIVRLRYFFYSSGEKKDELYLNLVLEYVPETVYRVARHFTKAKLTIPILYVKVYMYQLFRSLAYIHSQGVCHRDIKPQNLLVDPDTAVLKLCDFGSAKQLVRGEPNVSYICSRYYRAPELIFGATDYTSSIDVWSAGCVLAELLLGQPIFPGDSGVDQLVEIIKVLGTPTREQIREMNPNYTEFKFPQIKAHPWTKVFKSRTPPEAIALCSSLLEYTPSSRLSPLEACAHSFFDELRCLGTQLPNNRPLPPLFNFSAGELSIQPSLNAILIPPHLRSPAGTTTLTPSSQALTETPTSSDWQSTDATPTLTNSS
Assay: Inhibition of human GSK3alpha assessed as residual activity at 1 uM relative to control
assay.readout: Activity (%)

Use the examples below as a reference point.
{"substance.smiles": "O=C(Nc1ncnc2[nH]c(-c3cccnc3)nc12)c1ccccc1", "test.target": "Glycogen synthase kinase-3 alpha (Homo sapiens) (UniProt P49840)", "Activity / %": 61}
{"substance.smiles": "O=C(Nc1ncnc2[nH]c(-c3ccc4ccccc4c3)nc12)c1ccccc1", "test.target": "Glycogen synthase kinase-3 alpha (Homo sapiens) (UniProt P49840)", "Activity / %": 83}

[1] N#Cc1cccc(-c2nc3c(NC(=O)c4ccccc4)ncnc3[nH]2)c1
[2] O=C(Nc1ncnc2[nH]c(-c3cccc(Cl)c3)nc12)C1CC1
[3] CCCCC(=O)Nc1ncnc2[nH]c(-c3cccc(C#N)c3)nc12
Order each entry by recorded Activity, climbing from the minimum. # respond with the labels, arranged in the requested order
2, 3, 1

---

pIC50: −log10 of the molar value.
# pIC50 measurements, system: Glycogen synthase kinase-3 beta (Homo sapiens, UniProt P49841)
# Sequence (P49841 whole entry): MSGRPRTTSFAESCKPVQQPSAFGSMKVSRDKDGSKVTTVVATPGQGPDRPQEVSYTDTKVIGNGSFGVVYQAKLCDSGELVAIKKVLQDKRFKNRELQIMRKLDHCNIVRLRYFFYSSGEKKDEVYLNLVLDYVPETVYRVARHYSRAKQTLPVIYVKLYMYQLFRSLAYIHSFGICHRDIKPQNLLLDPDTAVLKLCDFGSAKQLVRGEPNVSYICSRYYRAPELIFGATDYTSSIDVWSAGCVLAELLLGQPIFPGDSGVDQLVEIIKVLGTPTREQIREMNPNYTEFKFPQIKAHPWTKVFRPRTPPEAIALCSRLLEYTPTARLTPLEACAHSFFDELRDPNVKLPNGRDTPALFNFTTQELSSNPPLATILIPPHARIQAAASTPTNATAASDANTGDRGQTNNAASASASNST
assay.readout: pIC50

[A] CCCCC(=O)Nc1ncnc2nc(-c3cccc(C#N)c3)[nH]c12
[B] N#Cc1cccc(-c2nc3c(NC(=O)C4CC4)ncnc3[nH]2)c1
[C] O=C(Nc1ncnc2[nH]c(-c3cccc(Cl)c3)nc12)C1CC1
List the compounds shown above again, sorted by falling pIC50 values. I'd appreciate it if you listed the labels in the requested order.
C, B, A

---

Molecular target: Glycogen synthase kinase-3 alpha (Homo sapiens)
Test: Inhibition of human GSK3alpha assessed as residual activity at 1 uM relative to control
assay.readout: Activity (%)

Worked examples, 7 compounds total:
{"substance.smiles": "C(=C\\c1nc2c(NCCN3CCOCC3)ncnc2[nH]1)/c1ccccc1", "unit.spec": "%", "Activity": 99}
{"substance.smiles": "N#Cc1cccc(-c2nc3c(NC(=O)C4CC4)ncnc3[nH]2)c1", "unit.spec": "%", "Activity": 30}
{"substance.smiles": "C(=C\\c1nc2c(NCc3cccnc3)ncnc2[nH]1)/c1ccccc1", "unit.spec": "%", "Activity": 84}
{"substance.smiles": "O=C(Nc1ncnc2[nH]c(/C=C/c3ccccc3)nc12)C1CC1", "unit.spec": "%", "Activity": 55}
{"substance.smiles": "CC(=O)Nc1ncnc2[nH]c(-c3cccc(C#N)c3)nc12", "unit.spec": "%", "Activity": 79}
{"substance.smiles": "C(=C\\c1nc2c(Nc3ccccc3)ncnc2[nH]1)/c1ccccc1", "unit.spec": "%", "Activity": 58}
{"substance.smiles": "O=C(Nc1ncnc2[nH]c(-c3cccc(Cl)c3)nc12)c1ccccc1", "unit.spec": "%", "Activity": 60}

[a] CC(=O)Nc1ncnc2[nH]c(-c3ccc4ccccc4c3)nc12
[b] C(=C\c1nc2c(N3CCCC3)ncnc2[nH]1)/c1ccccc1
[c] N#Cc1cccc(-c2nc3c(Nc4ccccc4)ncnc3[nH]2)c1
[d] CCCCC(=O)Nc1ncnc2[nH]c(-c3ccc4ccccc4c3)nc12
I would appreciate it if you could sort these 4 compounds by Activity, starting from the smallest number. Dear reader, please state the labels in the requested order.
c, d, a, b
(c: 2%, d: 31%, a: 49%, b: 87%)

---

Target: Glycogen synthase kinase-3 alpha (Homo sapiens) (UniProt P49840)
Test: Inhibition of human GSK3alpha assessed as residual activity at 1 uM relative to control
assay.readout: Activity (%)

{"substance.smiles": "COc1ccc(C(=O)Nc2ncnc3[nH]c(-c4cccc(Cl)c4)nc23)cc1", "test.target": "Glycogen synthase kinase-3 alpha (Homo sapiens) (UniProt P49840)", "unit.spec": "%", "Activity": 71}
{"substance.smiles": "c1cncc(-c2nc3c(OC4CCCC4)ncnc3[nH]2)c1", "test.target": "Glycogen synthase kinase-3 alpha (Homo sapiens) (UniProt P49840)", "unit.spec": "%", "Activity": 57}

[1] COc1ccc(C(=O)Nc2ncnc3[nH]c(-c4cccnc4)nc23)cc1
[2] c1ccc(Nc2ncnc3[nH]c(-c4ccccc4)nc23)cc1
Hi team, can someone confirm which has the larger Activity: 1 or 2 ? Thanks. Selection: enter the item's label.
1

[I] O=C(Nc1ncnc2[nH]c(/C=C/c3ccccc3)nc12)c1cccc(Br)c1
[II] O=C(Nc1ncnc2[nH]c(/C=C/c3ccccc3)nc12)c1ccccc1
// max by Activity over [ I , II ] Please identify the chosen entry by its label.
I

[I] O=C(Nc1ncnc2[nH]c(-c3ccccc3)nc12)c1ccccc1
[II] COc1ccc(C(=O)Nc2ncnc3[nH]c(/C=C/c4ccccc4)nc23)cc1
Select one. Lower Activity: I or II Answer by quoting the chosen item's label.
I
(I: 67%, II: 96%)

---

Biological target: Cyclin-dependent kinase 5/CDK5 activator 1 (Homo sapiens) (UniProt Q00535+Q15078)
Experiment: Inhibition of CDK5/p25 assessed as residual activity at 1 uM relative to control
Type: protein-complex assay
assay.readout: Activity (%)

As a guide, the following entries are already answered.
{"compound": "CC(=O)Nc1ncnc2[nH]c(-c3ccccc3)nc12", "unit.spec": "%", "observed": 101}
{"compound": "c1cncc(-c2nc3c(OC4CCCC4)ncnc3[nH]2)c1", "unit.spec": "%", "observed": 83}
{"compound": "COc1ccc(CNc2ncnc3c2nc(-c2cccc(F)c2)n3C)cc1", "unit.spec": "%", "observed": 96}
{"compound": "O=C(Nc1ncnc2[nH]c(-c3cccnc3)nc12)c1ccccc1", "unit.spec": "%", "observed": 102}
{"compound": "C(=C\\c1nc2c(NCc3cccnc3)ncnc2[nH]1)/c1ccccc1", "unit.spec": "%", "observed": 96}
{"compound": "COc1ccc(CNc2ncnc3nc(-c4cccc(F)c4)n(C)c23)cc1", "unit.spec": "%", "observed": 99}

[1] O=C(Nc1ncnc2[nH]c(/C=C/c3ccccc3)nc12)C1CC1
[2] c1ccc(-c2nc3c(OC4CCCC4)ncnc3[nH]2)cc1
In terms of reported Activity, does 1 or 2 have the smaller number? Please indicate the selected item by its label.
2
